Here the recorded % Activity (FLIPR) is given for each entry.
target: rat NMUR2 (rat, UniProt Q9ESQ4 1-395); experiment: cell-based or functional assay
Sequence (Q9ESQ4 whole entry): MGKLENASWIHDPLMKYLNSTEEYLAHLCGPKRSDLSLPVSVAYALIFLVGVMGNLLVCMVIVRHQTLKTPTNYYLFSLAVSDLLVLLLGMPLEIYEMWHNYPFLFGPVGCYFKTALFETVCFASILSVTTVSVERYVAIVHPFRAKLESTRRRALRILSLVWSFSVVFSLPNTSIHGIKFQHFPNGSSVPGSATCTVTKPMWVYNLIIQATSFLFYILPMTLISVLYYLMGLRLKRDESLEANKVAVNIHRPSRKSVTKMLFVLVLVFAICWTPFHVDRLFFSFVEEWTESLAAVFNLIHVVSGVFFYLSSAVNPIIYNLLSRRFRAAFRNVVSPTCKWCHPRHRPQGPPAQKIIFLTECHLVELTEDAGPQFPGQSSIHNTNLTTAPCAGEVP
*: point of attachment. (PEG)2 40 kDa = branched PEG of 40 kDa linked via the Cys side-chain thiol (code C2 = Cys(PEG)2 40 kDa); Cholesteroyl = cholesterol linked to a cysteine residue via the side-chain thiol; Succinimide(1-Et,3-yl) = CCN1C(=O)CC(*)C1=O
recorded.endpoint: % Activity (FLIPR)

binder: Ac-C(Succinimide(1-Et,3-yl))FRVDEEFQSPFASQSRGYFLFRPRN-NH2 [NMU8]
recorded.endpoint: % Activity (FLIPR)
obs.value: 94.7%
//
binder: Ac-C((PEG)2 40 kDa)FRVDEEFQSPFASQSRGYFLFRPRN-NH2 [NMU12]
recorded.endpoint: % Activity (FLIPR)
obs.value: 43.4%
//
binder: Ac-C(Cholesteroyl)GYFLFRPRN-NH2 [NMU11]
recorded.endpoint: % Activity (FLIPR)
obs.value: 33.2%
